TEST_DESCRIPTION: photochromic response of test squares on an optical bench (sensitivity, saturation optical density, bleach rate)
Format: physicochemical
CONDITION_LABEL: measured at band B; room temperature (72° F., 22.2° C.) after removal of activating light
RESULT_TYPE: Bleach Rate T 1/2 (min)

Sample answers from the record:
- MOLECULE: "CCC1(O)c2cc(OC)c(OC)cc2-c2c1c1c(c3cc(OC)c(OC)cc23)OC(c2ccc(OC)cc2)(c2ccc(OC)cc2)C=C1 (stereo not shown) [Example 3]"
  OBS_VALUE: 2.58
- MOLECULE: "CCC1(O)c2ccccc2-c2c1c1c(c3cc(OC)c(OC)cc23)OC(c2ccccc2)(c2ccc(N3CCOCC3)cc2)C=C1 (stereo not shown) [Example 14]"
  OBS_VALUE: 1.8
- MOLECULE: "COc1ccc(C2(c3ccc(N4CCOCC4)cc3)C=Cc3c4c(c5cc(OC)c(OC)cc5c3O2)-c2ccccc2C4c2ccccc2)cc1 (stereo not shown) [Example 8]"
  OBS_VALUE: 2.98

A. CCC1(CC)c2cc(OC)c(OC)cc2-c2c1c1c(c3cc(OC)c(OC)cc23)OC(c2ccc(OC)cc2)(c2ccc(OC)cc2)C=C1 [Example 6]
B. COc1ccc(C2(c3ccc(OC)cc3)C=Cc3c4c(c5cc(OC)c(OC)cc5c3O2)-c2ccccc2C4c2ccccc2)cc1 (stereo not shown) [Example 7]
C. COc1ccc(C2(c3ccc(N(C)C)cc3)C=Cc3c4c(c5cc(OC)c(OC)cc5c3O2)-c2ccccc2C4(C)C)cc1 (stereo not shown) [Example 10]
Please order the records by their reported Bleach Rate T 1/2, lowest number first. Give me the labels in the order the question wants. C, B, A

* * *

Recorded Sensitivity ΔOD/MIN (Band B) for the following compounds
TEST_DESCRIPTION: photochromic response of test squares on an optical bench (sensitivity, saturation optical density, bleach rate)
Assay type: physicochemical
CONDITION_LABEL: Band B; first five (5) seconds of UV exposure, expressed per minute; 72° F. (22.2° C.); polymer test square

Sample answers from the record:
- COMPOUND: "COc1cc2c(cc1OC)C(C)(C)c1c3c(c4cc(OC)c(OC)cc4c1-2)OC(c1ccccc1)(c1ccc(N2CCOCC2)cc1)C=C3 (stereo not drawn)"
  Sensitivity ΔOD/MIN (Band B): "0.29 ΔOD/MIN"
- COMPOUND: "CCC1(CC)c2cc(OC)c(OC)cc2-c2c1c1c(c3cc(OC)c(OC)cc23)OC(c2ccc(OC)cc2)(c2ccc(OC)cc2)C=C1"
  Sensitivity ΔOD/MIN (Band B): "0.37 ΔOD/MIN"
- COMPOUND: "COc1ccc(C2(c3ccc(OC)cc3)C=Cc3c4c(c5cc(OC)c(OC)cc5c3O2)-c2ccccc2C4(C)C)cc1"
  Sensitivity ΔOD/MIN (Band B): "0.22 ΔOD/MIN"
- COMPOUND: "COc1ccc(C2(c3ccc(N4CCOCC4)cc3)C=Cc3c4c(c5cc(OC)c(OC)cc5c3O2)-c2ccccc2C4c2ccccc2)cc1 (stereo not drawn)"
  Sensitivity ΔOD/MIN (Band B): "0.18 ΔOD/MIN"
- COMPOUND: "CCC1(O)c2cc(OC)ccc2-c2c1c1c(c3cc(OC)ccc23)OC(c2ccc(OC)cc2)(c2ccc(OC)cc2)C=C1 (stereo not drawn) [Comp. Ex. 2, reference compound]"
  Sensitivity ΔOD/MIN (Band B): "0.32 ΔOD/MIN"

GET /values?readout=Sensitivity ΔOD/MIN (Band B)&item= COc1ccc(C2(c3ccc(OC)cc3)C=Cc3c4c(c5cc(OC)c(OC)cc5c3O2)-c2ccccc2C4c2ccccc2)cc1 (stereo not drawn) 0.16 ΔOD/MIN

* * *

TEST_DESCRIPTION: photochromic response of test squares on an optical bench (sensitivity, saturation optical density, bleach rate)
Assay type: physicochemical
CONDITION_LABEL: Band A; UV exposure 15 minutes; 72° F. (22.2° C.); polymer test square
RESULT_TYPE: ΔOD @ Saturation (Band A)

I. COc1cc2c(cc1OC)C(C)(C)c1c3c(c4cc(OC)c(OC)cc4c1-2)OC(c1ccccc1)(c1ccc(N2CCOCC2)cc1)C=C3 (stereo not drawn) [Example 2]
II. CCC1(OC)c2ccccc2-c2c1c1c(c3cc(OC)c(OC)cc23)OC(c2ccc(OC)cc2)(c2ccc(N3CCOCC3)cc2)C=C1 (stereo not drawn) [Example 18]
III. CCC1(O)c2ccccc2-c2c1c1c(c3ccccc23)OC(c2ccc(OC)cc2)(c2ccc(OC)cc2)C=C1 (stereo not drawn) [Comp. Ex. 1, reference compound]
Order the 3 compounds from highest to lowest ΔOD @ Saturation (Band A). Give me the labels in the order the question wants. I, II, III
(I: 1.10, II: 0.27, III: 0.16)

* * *

TEST_DESCRIPTION: photochromic response of test squares on an optical bench (sensitivity, saturation optical density, bleach rate)
Type: physicochemical
CONDITION_LABEL: Band B; UV exposure 15 minutes; 72° F. (22.2° C.); polymer test square
RESULT_TYPE: ΔOD @ Saturation (Band B)

Sample answers from the record:
- MOLECULE: "CCC1(O)c2cc(OC)c(OC)cc2-c2c1c1c(c3ccccc23)OC(c2ccc(OC)cc2)(c2ccc(OC)cc2)C=C1 (centres unmarked) [Comp. Ex. 3, reference compound]"
  RESULT_TYPE: "ΔOD @ Saturation (Band B)"
  OBS_VALUE: 0.48
- MOLECULE: "CCC1(O)c2ccccc2-c2c1c1c(c3cc(OC)c(OC)cc23)OC(c2ccccc2)(c2ccc(N3CCOCC3)cc2)C=C1 (centres unmarked)"
  RESULT_TYPE: "ΔOD @ Saturation (Band B)"
  OBS_VALUE: 0.40
- MOLECULE: "COc1ccc(C2(c3ccc(OC)cc3)C=Cc3c4c(c5cc(OC)c(OC)cc5c3O2)-c2ccccc2C4c2ccccc2)cc1 (centres unmarked)"
  RESULT_TYPE: "ΔOD @ Saturation (Band B)"
  OBS_VALUE: 0.43

P. COc1ccc(C2(c3ccc(OC)cc3)C=Cc3c4c(c5c(OC)c(OC)c(OC)cc5c3O2)-c2ccccc2C4c2ccccc2)cc1 (centres unmarked)
Q. CCCCC1(O)c2ccccc2-c2c1c1c(c3cc(OC)c(OC)cc23)OC(c2ccccc2)(c2ccc(N3CCOCC3)cc2)C=C1 (centres unmarked)
Please tell me which of the two, P or Q , has the higher reported ΔOD @ Saturation (Band B) value. Answer format: the label of the selected item. P

1. COc1ccc(C2(c3ccc(N4CCOCC4)cc3)C=Cc3c4c(c5cc(OC)c(OC)cc5c3O2)-c2ccccc2C4(C)C)cc1 (centres unmarked)
2. COc1ccc(C2(c3ccc(N4CCOCC4)cc3)C=Cc3c4c(c5cc(OC)c(OC)cc5c3O2)-c2ccccc2C4(C)OC)cc1 (centres unmarked)
Hey, which is lower on measured ΔOD @ Saturation (Band B), 1 or 2 ? Answer format: the label of the selected item. 2

* * *

TEST_DESCRIPTION: photochromic response of test squares on an optical bench (sensitivity, saturation optical density, bleach rate)
Type: physicochemical
CONDITION_LABEL: Band A; first five (5) seconds of UV exposure, expressed per minute; 72° F. (22.2° C.); polymer test square
RESULT_TYPE: Sensitivity ΔOD/MIN (Band A)

- COMPOUND: "CCC1(O)c2ccccc2-c2c1c1c(c3cc(OC)c(OC)cc23)OC(c2ccc(OC)cc2)(c2ccc(OC)cc2)C=C1 (stereo not drawn)"
  Sensitivity ΔOD/MIN (Band A): "0.26 ΔOD/MIN"
- COMPOUND: "COc1ccc(C2(c3ccc(N4CCOCC4)cc3)C=Cc3c4c(c5cc(OC)c(OC)cc5c3O2)-c2ccccc2C4(C)C)cc1 (stereo not drawn)"
  Sensitivity ΔOD/MIN (Band A): "0.18 ΔOD/MIN"

Now consider the entry below.
GET /values?readout=Sensitivity ΔOD/MIN (Band A)&item= CCC1(O)c2ccccc2-c2c1c1c(c3ccccc23)OC(c2ccc(OC)cc2)(c2ccc(OC)cc2)C=C1 (stereo not drawn) [Comp. Ex. 1, reference compound] 0.21 ΔOD/MIN
